Target or system Cyclin-dependent kinase 8 (Homo sapiens, UniProt P49336); metric pKd; compiled from varied reports.
Numbers only, as −log10 of the molar value.

Completed entries (count: 2):
Task: Could you tell me which pKd is on file for N#Cc1ccc2ncnc(NCCc3ccccc3)c2c1 ?
Output: 6.08

Task: Could you tell me which pKd is on file for CN(C)[C@@H]1CC[C@@]2(C)[C@@H](CC[C@@H]3[C@@H]2CC[C@]2(C)C(c4cncc(Cl)c4)=CC[C@@H]32)C1 ?
Output: 7.89

***
Task: Could you tell me which pKd is on file for CN1CCN(C(=O)c2ccc3cc(CCNc4ncnc5ccc(C#N)cc45)ccc3c2)CC1 ?
Output: 6.85
